Data provenance is patent US7655671B2.

Structures can show the parent of a compound that is named as a salt.
measurementType: melting point

| compound | melting point |
| --- | --- |
| CCCN1CC[C@]23c4c5ccc(O)c4O[C@H]2C(=O)CC[C@@]3(OCCC(C)C)[C@H]1C5 (as salt: hydrochloride) | 175 to 185 °C (dec.) |
| O=C1CC[C@@]2(OCc3ccccc3)[C@H]3Cc4ccc(O)c5c4[C@@]2(CCN3CC2CC2)[C@H]1O5 (as salt: hydrobromid) | > 210 °C (dec.) |

Prompt: Consider the compound CC(C)CCO[C@@]12CCC(=O)[C@@H]3Oc4c(O)ccc5c4[C@@]31CCN(CC1CC1)[C@@H]2C5 (as salt: hydrochloride) and give its measured melting point.
Response: 168 to 170 °C

Prompt: Try C[N@+]1(CC2CC2)CC[C@]23c4c5ccc(O)c4O[C@H]2C(=O)CC[C@@]3(OCCCc2ccccc2)[C@H]1C5.[I-] next.
Response: 175 to 176 °C

---

molecular target: μ-opioid receptors (Rattus norvegicus, UniProt P33535); construct: from tissue; host or cells: rat brain homogenate; experiment: Opioid receptor binding studies on rat's brain homogenisates with [3H]DAMGO; details: [3H]DAMGO as radio-ligand, rat's brain homogenisates; read-out: Ki (nM) (μ-receptors)
Sequence (P33535 whole entry): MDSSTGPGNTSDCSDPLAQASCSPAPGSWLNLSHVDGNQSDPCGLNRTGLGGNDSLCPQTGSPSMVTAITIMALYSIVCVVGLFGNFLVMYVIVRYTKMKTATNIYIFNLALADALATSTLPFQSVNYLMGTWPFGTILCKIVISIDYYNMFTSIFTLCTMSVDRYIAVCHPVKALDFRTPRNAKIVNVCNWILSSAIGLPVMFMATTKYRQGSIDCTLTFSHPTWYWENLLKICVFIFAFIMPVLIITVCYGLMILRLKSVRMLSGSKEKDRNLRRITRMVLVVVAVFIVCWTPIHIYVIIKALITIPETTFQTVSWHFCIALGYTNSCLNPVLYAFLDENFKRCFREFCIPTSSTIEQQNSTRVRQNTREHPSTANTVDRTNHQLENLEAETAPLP
Counter-ions that a name gives are not always drawn.
measurementType: Ki
Include the unit after the number when you answer.

| compound | observedMeasurement |
| --- | --- |
| C#CCOc1ccc2c3c1O[C@@]1(C)C(=O)CC[C@@]4(OCCCc5ccccc5)[C@@H](C2)N(C)CC[C@]314.Cl [Compound 17, hydrochloride] | 0.73 nM |
| CO[C@@]12CCC(=O)[C@]3(C)Oc4c(O)ccc5c4[C@@]31CCN(C)[C@@H]2C5 [14-methoxymetopon, reference compound] | 0.55 nM |
| COc1c(O)ccc2c1[C@]13CCN(CC4CC4)[C@H](C2)[C@]1(OC)CCC(=O)C3 [3-hydroxycyprodime, reference compound] | 6.15 nM |

Prompt: Consider the compound O=C1CC[C@@]2(OCCCc3ccccc3)[C@H]3Cc4ccc(O)c5c4[C@@]2(CCN3CC2CC2)[C@H]1O5 [Compound 8, hydrochloride] and give its measured Ki.
Response: 0.34 nM

---

Counter-ions that a name gives are not always drawn.
Documented melting point across a set of molecules

Solved entries (count: 3):
| molecule | melting point |
| --- | --- |
| C=CCN1CC[C@]23c4c5ccc(OC)c4O[C@H]2C(=O)CC[C@@]3(OCCCc2ccccc2)C1C5 | 129 to 130 °C |
| CCO[C@@]12CCC(=O)[C@@H](C)[C@@]13CCN(C)C2Cc1ccc(OC)c(OC)c13 | 135 to 141 °C |
| COc1ccc2c(c1OC)[C@]13CCN(C)C(C2)[C@]1(OCCCc1ccccc1)CCC(=O)C3 | 110 to 115 °C |

Prompt: Consider the molecule COc1ccc2c(c1O)[C@]13CCN(C)[C@H](C2)[C@]1(OCCCc1ccccc1)CCC(=O)[C@H]3C (as salt: hydrochloride) and give its measured melting point.
Response: > 210 °C (dec.)

---

Structures can show the parent of a compound that is named as a salt.
measurementType: melting point

Solved entries (count: 3):
| compound | observedMeasurement |
| --- | --- |
| CCN1CC[C@]23c4c5ccc(OC)c4O[C@H]2C(=O)CC[C@@]3(OCCCc2ccccc2)[C@H]1C5 | 95 to 101 °C |
| C[N@+]1(CC2CCCO2)CC[C@]23c4c5ccc(O)c4OC2C(=O)CCC3(OCCCc2ccccc2)C1C5.[I-] (stereo partly shown) | 156 to 159 °C |
| COC12CCC(=O)C3Oc4c(O)ccc5c4[C@@]31CC[N@+](C)(CCc1ccccc1)C2C5.[I-] (stereo partly shown) | 180 to 181 °C |

Prompt: Consider the compound Cc1ccccc1CO[C@@]12CCC(=O)[C@@H]3Oc4c(O)ccc5c4[C@@]31CCN(CC1CC1)[C@@H]2C5 (as salt: hydrochloride) and give its measured melting point.
Response: 198 to 200 °C
